inhibition by entry:
target: Solute carrier family 2, facilitated glucose transporter member 1 (Homo sapiens) (UniProt P11166); experiment: ST_JUDE_LEISH: Cytotoxicity at 2uM final concentration against transgenic Leishmania Mexicana promastigotes LmGLUT1 that are glucose transport deficient and complemented with the human glucose transporter GLUT1. Activity is measured by DNA content using SYBR green in vitro; format: functional
Sequence (P11166 whole entry): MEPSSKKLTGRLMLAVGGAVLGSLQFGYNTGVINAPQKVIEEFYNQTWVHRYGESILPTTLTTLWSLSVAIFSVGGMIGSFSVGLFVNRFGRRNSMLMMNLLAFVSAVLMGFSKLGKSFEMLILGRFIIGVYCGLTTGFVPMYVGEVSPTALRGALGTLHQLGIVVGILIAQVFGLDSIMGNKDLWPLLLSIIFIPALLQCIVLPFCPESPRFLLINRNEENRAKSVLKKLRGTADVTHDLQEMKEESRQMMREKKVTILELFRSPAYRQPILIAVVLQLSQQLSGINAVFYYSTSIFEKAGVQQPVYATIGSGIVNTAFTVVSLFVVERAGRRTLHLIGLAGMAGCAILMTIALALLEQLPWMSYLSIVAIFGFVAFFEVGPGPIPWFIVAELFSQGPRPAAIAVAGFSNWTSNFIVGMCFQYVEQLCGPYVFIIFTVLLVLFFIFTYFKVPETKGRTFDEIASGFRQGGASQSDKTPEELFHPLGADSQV
// note: answer is a bare numeric in %

[
  {
    "MOLECULE": "COC(C(=O)OCCC1CCCN1C)(c1ccccc1)c1ccccc1 (stereo not given)",
    "inhibition (%)": -0.93
  },
  {
    "MOLECULE": "CC(Cc1ccc(CSC(C)C)cc1)NCC(O)c1cccc(Cl)c1 (stereo not given)",
    "inhibition (%)": 3.54
  },
  {
    "MOLECULE": "CC(=O)Nc1ccc(OCCN(CC(C)(C)C)c2ccc(C#N)c(C(F)(F)F)c2)c(Cl)c1",
    "inhibition (%)": 4.2
  },
  {
    "MOLECULE": "Cc1cc(N)nc2cc(CNCCc3ccccc3Br)ccc12",
    "inhibition (%)": 0.26
  }
]

// next item, inhibition requested
[in] What does the data say about its inhibition? Entry: CN(C)c1cccc(NC(=O)NC2N=C(c3ccccc3)c3ccccc3N(CC(=O)N(C)c3ccccc3)C2=O)c1 (stereo not given)
[out] 6.38
